testName: MTT cytotoxicity assay, SK-BR-3
Assay type: cell-based, human
recordedConditions: human, CC50 of WI-38 divided by CC50 of SK-BR-3 (Table 3); read-out: SCI (selective cytotoxicity index)
Catalogue of molecules with associated selectivity ratio at 72 h
Respond with the number and no other words.

Illustrative cases are given below, each with its answer.
CC1COc2c(ccc(F)c2F)N1C(=O)CCCCCCCCCCNc1ncnc2c1ncn2COCCO (centres unmarked) [Compound 7] | 0.33
CC1COc2c(ccc(F)c2F)N1C(=O)CCCCCCCCCCNc1ncnc2[nH]cnc12 (centres unmarked) [Compound 1d] | 0.75
CC(=O)OCCOCn1cnc2c(NCCCCCCCCCCC(=O)N3c4ccc(F)c(F)c4OCC3C)ncnc21 (centres unmarked) [Compound 6] | 0.08

We next turn to a different molecule, shown below.
Exercise: What value of measured selectivity ratio at 72 h is listed for COc1cccc2c1C(=O)c1c(O)c3c(c(O)c1C2=O)C[C@@](O)(C(=O)CO)C[C@@H]3O[C@H]1C[C@H](N)[C@H](O)[C@H](C)O1 [Dox, Doxorubicin, reference compound] ?
Key: 0.15

* * *

testName: MTT cytotoxicity assay, COLO201
Type: cell-based, human
recordedConditions: human; CC50 of WI-38 divided by CC50 of COLO201; read-out: SCI (selective cytotoxicity index)
Catalogue of molecules with associated selectivity ratio at 72 h
Respond with the number and no other words.

CC1COc2c(ccc(F)c2F)N1C(=O)CCCCCCCNc1ncnc2[nH]cnc12 (stereo not shown) | 73
CC1COc2c(ccc(F)c2F)N1C(=O)CCCCCCCCCCCCCCNc1ncnc2[nH]cnc12 (stereo not shown) | 27
CC1COc2c(ccc(F)c2F)N1C(=O)CCCCCCCCCCCNc1ncnc2[nH]cnc12 (stereo not shown) | 20

We next turn to a different molecule, shown below.
Exercise: What value of measured selectivity ratio at 72 h is listed for CC1COc2c(ccc(F)c2F)N1C(=O)CCCCCCCCCCNc1ncnc2[nH]cnc12 (stereo not shown) ?
Key: 31

* * *

Test system: 4T1 murine mammary carcinoma
testName: MTT cytotoxicity assay, 4T1
Format: cell-based
recordedConditions: Mus musculus; 4T1, 72 h incubation, MTT, n = 3
Catalogue of molecules with associated CC50

Exercise: What value of measured CC50 is listed for CC1COc2c(ccc(F)c2F)N1C(=O)CCCCCCCCCCNc1ncnc2[nH]cnc12 (stereo not shown) ?
Key: 23 µM

Exercise: What value of measured CC50 is listed for CC1COc2c(ccc(F)c2F)N1C(=O)CCCCCCCCCCCNc1ncnc2[nH]cnc12 (stereo not shown) ?
Key: 0.49 µM

Exercise: What value of measured CC50 is listed for CC1COc2c(ccc(F)c2F)N1C(=O)CCCCCCCNc1ncnc2[nH]cnc12 (stereo not shown) ?
Key: 23 µM

Exercise: What value of measured CC50 is listed for CC1COc2c(ccc(F)c2F)N1C(=O)CCCCCCCCCCCCCCNc1ncnc2[nH]cnc12 (stereo not shown) ?
Key: 2.3 µM

* * *

testName: MTT cytotoxicity assay, WI-38 normal cells
Type: cell-based
recordedConditions: human, WI-38 lung fibroblasts (normal cells), WI-38, 72 h incubation, MTT, n = 3
Source text: The cytotoxicity of the test compounds was studied using the MTT assay against a number of cell lines: CT-26 murine colon carcinoma, 4T1 murine mammary carcinoma, MDA-MB-231 human breast adenocarcinoma, COLO201 human colorectal adenocarcinoma, HepG2 human hepatocellular carcinoma, A549 human non-small-cell lung carcinoma, SK-BR-3 human breast adenocarcinoma, SNU-1 human gastric carcinoma, Jurkat human acute T-lymphoblastic leukemia, and WI-38 human lung fibroblasts (normal cells). […]
reportedMetric: CC50 at 72 h (µM)
# unit: µM | format: bare number

Illustrative cases are given below, each with its answer.
CC1COc2c(ccc(F)c2F)N1C(=O)CCCCCCCCCCCNc1ncnc2[nH]cnc12 (stereo not shown) [Compound 1e] | 71
CC1COc2c(ccc(F)c2F)N1C(=O)CCCCCCCNc1ncnc2[nH]cnc12 (stereo not shown) [Compound 1c] | 50
CC1COc2c(ccc(F)c2F)N1C(=O)CCCCCCCCCCCCCCNc1ncnc2[nH]cnc12 (stereo not shown) [Compound 1f] | 35

Exercise: What value of measured CC50 at 72 h is listed for CC1COc2c(ccc(F)c2F)N1C(=O)CCCCCCCCCCNc1ncnc2[nH]cnc12 (stereo not shown) [Compound 1d] ?
Key: 21

* * *

Tested on: Jurkat human acute T-lymphoblastic leukemia
testName: MTT cytotoxicity assay, Jurkat
Assay type: cell-based
recordedConditions: Homo sapiens, Jurkat, 72 h, 72 h incubation, MTT, n = 3 (Table 1)
Catalogue of molecules with associated CC50
# unit: µM | format: bare number

Illustrative cases are given below, each with its answer.
CC1COc2c(ccc(F)c2F)N1C(=O)CCCCCCCNc1ncnc2[nH]cnc12 (stereo not shown) | 8.5
CC1COc2c(ccc(F)c2F)N1C(=O)CCCCCCCCCCNc1ncnc2[nH]cnc12 (stereo not shown) | 8.5
CC1COc2c(ccc(F)c2F)N1C(=O)CCCCCCCCCCCCCCNc1ncnc2[nH]cnc12 (stereo not shown) | 32

We next turn to a different molecule, shown below.
Exercise: What value of measured CC50 is listed for CC1COc2c(ccc(F)c2F)N1C(=O)CCCCCCCCCCCNc1ncnc2[nH]cnc12 (stereo not shown) ?
Key: 4

* * *

Catalogue of compounds with associated selectivity ratio at 72 h
testName: MTT cytotoxicity assay, Jurkat
Format: cell-based, human
recordedConditions: human, CC50 of WI-38 divided by CC50 of Jurkat (Table 1); read-out: SCI (selective cytotoxicity index)
Respond with the number and no other words.

CC1COc2c(ccc(F)c2F)N1C(=O)CCCCCCCCCCCCCCNc1ncnc2[nH]cnc12 (stereo not shown) | 1.1
CC1COc2c(ccc(F)c2F)N1C(=O)CCCCCCCCCCCNc1ncnc2[nH]cnc12 (stereo not shown) | 18
CC1COc2c(ccc(F)c2F)N1C(=O)CCCCCCCNc1ncnc2[nH]cnc12 (stereo not shown) | 5.9

We next turn to a different compound, shown below.
Exercise: What value of measured selectivity ratio at 72 h is listed for CC1COc2c(ccc(F)c2F)N1C(=O)CCCCCCCCCCNc1ncnc2[nH]cnc12 (stereo not shown) ?
Key: 2.5

* * *

testName: MTT cytotoxicity assay, A549
Format: cell-based, human
recordedConditions: human, CC50 of WI-38 divided by CC50 of A549 (Table 1); read-out: SCI (selective cytotoxicity index)
Catalogue of compounds with associated selectivity ratio at 72 h

Illustrative cases are given below, each with its answer.
CC1COc2c(ccc(F)c2F)N1C(=O)CCCCCCCCCCCNc1ncnc2[nH]cnc12 (stereo not shown) [Compound 1e] | 0.95
CC1COc2c(ccc(F)c2F)N1C(=O)CCCCCCCNc1ncnc2[nH]cnc12 (stereo not shown) [Compound 1c] | 1.2
CC1COc2c(ccc(F)c2F)N1C(=O)CCCCCCCCCCCCCCNc1ncnc2[nH]cnc12 (stereo not shown) [Compound 1f] | 0.58

We next turn to a different compound, shown below.
Exercise: What value of measured selectivity ratio at 72 h is listed for CC1COc2c(ccc(F)c2F)N1C(=O)CCCCCCCCCCNc1ncnc2[nH]cnc12 (stereo not shown) [Compound 1d] ?
Key: 0.49

* * *

testName: MTT cytotoxicity assay, Jurkat
Format: cell-based, human
recordedConditions: human, CC50 of WI-38 divided by CC50 of Jurkat (Table 3); read-out: SCI (selective cytotoxicity index)
Catalogue of compounds with associated selectivity ratio at 72 h
Respond with the number and no other words.

CC(=O)OCCOCn1cnc2c(NCCCCCCCCCCC(=O)N3c4ccc(F)c(F)c4OCC3C)ncnc21 (stereo not drawn) | 3
CC1COc2c(ccc(F)c2F)N1C(=O)CCCCCCCCCCNc1ncnc2[nH]cnc12 (stereo not drawn) | 2.1
CC1COc2c(ccc(F)c2F)N1C(=O)CCCCCNc1ncnc2[nH]cnc12 (stereo not drawn) | 1.5

Exercise: What value of measured selectivity ratio at 72 h is listed for COc1cccc2c1C(=O)c1c(O)c3c(c(O)c1C2=O)C[C@@](O)(C(=O)CO)C[C@@H]3O[C@H]1C[C@H](N)[C@H](O)[C@H](C)O1 [Dox, Doxorubicin, reference compound] ?
Key: 1.9

Exercise: What value of measured selectivity ratio at 72 h is listed for CC1COc2c(ccc(F)c2F)N1C(=O)CCCCCCCCCCNc1ncnc2c1ncn2COCCO (stereo not drawn) ?
Key: 1.9

* * *

testName: MTT cytotoxicity assay, 4T1
Type: cell-based, murine
recordedConditions: mouse (4T1) and human (WI-38); CC50 of WI-38 divided by CC50 of 4T1; read-out: SCI (selective cytotoxicity index)
Catalogue of compounds with associated selectivity ratio at 72 h
Respond with the number and no other words.

CC1COc2c(ccc(F)c2F)N1C(=O)CCCCCCCCCCNc1ncnc2[nH]cnc12 (stereo not shown) [Compound 1d] | 0.91
CC1COc2c(ccc(F)c2F)N1C(=O)CCCCCCCNc1ncnc2[nH]cnc12 (stereo not shown) [Compound 1c] | 2.2
CC1COc2c(ccc(F)c2F)N1C(=O)CCCCCCCCCCCCCCNc1ncnc2[nH]cnc12 (stereo not shown) [Compound 1f] | 15

We next turn to a different compound, shown below.
Exercise: What value of measured selectivity ratio at 72 h is listed for CC1COc2c(ccc(F)c2F)N1C(=O)CCCCCCCCCCCNc1ncnc2[nH]cnc12 (stereo not shown) [Compound 1e] ?
Key: 145
